Reference source for all entries: PubChem BioAssay (NCI)

System: IGROV1 ovarian
Protocol Details: NCI-60 one-dose screen, 48 h
Study Conditions: 10 µM unless noted
Compounds without any hit were thinned out: in the full panel of roughly 83,000, 20% have a hit. The source made the active and inactive calls. The calls were made as follows: active = growth percent below 10; inactive = the rest.
Returns: one label drawn from active, inactive

Lookup: Look up the recorded call for CN(C)C(C(N)=O)c1ccc(Cl)cc1 (stereo unspecified) in this test.
Found: inactive

----------
Test system: SN12C renal
Protocol Details: NCI-60 one-dose screen, 48 h
Study Conditions: 10 µM unless noted
About 83,000 compounds went through this panel and 20% of them were active in at least one assay; those are over-represented in the sample as a whole. The source made the active and inactive calls. Rule for the calls: active = growth percent below 10; inactive = the rest.
Returns: one label drawn from active, inactive

Please review the entries below; each comes with its answer.
{"columns": ["Molecule", "Class Name"],
 "data": [
  ["C[C@H]1[C@H](C)CC[C@]2(CO)CC[C@]3(C)C(=CC[C@@H]4[C@@]5(C)CCCNC(C)(C)[C@@H]5CC[C@]43C)[C@H]12", "active"],
  ["O=C1NC(=S)NC(=O)C1=Cc1cn(Cc2ccccn2)c2ccccc12", "inactive"],
  ["COc1ccc(-c2nc3sccn3c2/C=C/C(=O)c2cc(OC)c(OC)c(OC)c2)cc1", "inactive"],
  ["CCNC(=O)c1[nH]cc(-c2ccc(OC)cc2)c1-c1cc(OC)cc(OC)c1", "inactive"],
  ["O=C(CCN1CCCC1)Nc1ccc2c(NCc3ccc(F)cc3)c3ccccc3nc2c1", "active"]
]}

Lookup: Look up the recorded call for COc1c(Cl)cc(Cl)c2ccc(C=C3C(=O)NC(=S)NC3=O)nc12 in this test.
Found: inactive

Lookup: Look up the recorded call for OC(c1ccccc1)c1ccccn1 (stereo unspecified) in this test.
Found: inactive

Lookup: Look up the recorded call for COc1ccc(-c2nc(SC(C)C)nc(NNC(N)=O)c2C#N)cc1 in this test.
Found: inactive

Lookup: Look up the recorded call for Fc1ccc(C2CC(c3cccc(Nc4ccncc4)c3)=NN2c2ccc(Cl)cc2)cc1 (stereo unspecified) in this test.
Found: inactive

Lookup: Look up the recorded call for Cc1ccc(C2CC(c3cccc(Nc4ccncc4)c3)=NN2c2ccccc2)cc1 (stereo unspecified) in this test.
Found: active

Lookup: Look up the recorded call for CC(C)(C)CC(C)(C)Nc1c(-c2ccc(C(F)(F)F)cc2)nc2cnccn12 in this test.
Found: inactive

Lookup: Look up the recorded call for COc1ccc(/C=C2\COc3ccc(-c4ccccc4)cc3C2=O)cc1O in this test.
Found: inactive

Lookup: Look up the recorded call for COc1cccc(/C=C2\COc3ccc(-c4ccccc4)cc3C2=O)c1 in this test.
Found: inactive

Lookup: Look up the recorded call for COc1ccc(C(=O)c2cc3c(N)c(C(=O)Nc4ccc(Br)cc4)sc3nc2C)cc1 in this test.
Found: inactive

Lookup: Look up the recorded call for Clc1nc(Cl)c2ncn(CCOCCn3cnc4c(Cl)nc(Cl)nc43)c2n1 in this test.
Found: active
